Test system: Alopecurus myosuroides (ALOMY)
Test: Pre-emergence herbicidal activity, glasshouse pot test
Type: in vivo
Conditions: Alopecurus myosuroides, 312 h; Rate 250 g/ha; pre-emergence spray; evaluated after 13 days; read-out: Pre-emergence activity ALOMY (100=total damage to plant; 0=no damage to plant)
Measured Attribute: pest or weed control at 250 g/ha (%)
Record the value in %, omitting the unit from your answer.

Examples from the recorded data:
Compound	pest or weed control at 250 g/ha (%)
CCc1ccc(Oc2nc3ccc(C(F)(F)F)cc3s2)cc1C1=C(O)C(C)(C)OC(C)(C)C1=O [Example A-219]	50
CCc1ccc(Oc2ccc(C(F)(F)F)c(Cl)c2)cc1C1=C(O)[C@@H]2CC[C@](C)(C1=O)C2(C)C [Example A-315]	80
CCc1ccc(Oc2cccc(Cl)c2)cc1C1=C(O)C(C)(C)OC(C)(C)C1=O [Example A-5]	0
CCc1ccc(Oc2ccc(Br)c(Cl)c2)cc1C1=C(O)C(C)(C)OC(C)(C)C1=O [Example A-10]	0
CCc1ccc(Oc2cnc3ccc(Br)cc3n2)cc1C1=C(O)CC(C)(C)CC1=O [Example A-289]	60
CCc1ccc(Oc2ccc(Cl)cc2F)cc1C1=C(O)[C@@H]2CC[C@](C)(C1=O)C2(C)C (single isomer, unassigned) [Example A-95]	70
CCc1ccc(Oc2ncc(C(F)(F)F)cc2F)cc1C1=C(O)C(C)(C)OC(C)(C)C1=O [Example A-62]	100
CCc1ccc(Oc2ccc(C(F)(F)F)c(C#N)c2)cc1C1=C(O)[C@@H]2CC[C@](C)(C1=O)C2(C)C [Example A-323]	70

Record summary for CCc1ccc(Oc2nc(F)c(F)cc2F)cc1C1=C(O)C(C)(C)OC(C)(C)C1=O [Example A-167] : reported pest or weed control at 250 g/ha = 30

Record summary for CCc1ccc(Oc2ncc(Cl)cc2Cl)cc1C1=C(O)CC2(CCOCC2)CC1=O [Example A-275] : reported pest or weed control at 250 g/ha = 100

Record summary for CCc1ccc(Oc2ncc(C(F)(F)F)cc2Cl)cc1C1=C(O)CC2(CCOCC2)CC1=O [Example A-272] : reported pest or weed control at 250 g/ha = 100

Record summary for CCc1ccc(Oc2ccc(C#N)cc2C(F)(F)F)cc1C1=C(O)C(C)(C)OC(C)(C)C1=O [Example A-74] : reported pest or weed control at 250 g/ha = 60

Record summary for CCc1ccc(Oc2ncc(Br)cn2)cc1C1=C(O)CC(C)(C)CC1=O [Example A-297] : reported pest or weed control at 250 g/ha = 70

Record summary for CCc1ccc(Oc2ccc(Cl)cc2Cl)cc1C1=C(O)CCCC1=O [Example A-40] : reported pest or weed control at 250 g/ha = 50

Record summary for CCc1ccc(Oc2ncccc2C(F)(F)F)cc1C1=C(O)C(C)(C)OC(C)(C)C1=O [Example A-154] : reported pest or weed control at 250 g/ha = 0

Record summary for CCc1ccc(Oc2ccc(Cl)c(Cl)c2)cc1C1=C(O)C(C)(C)OC(C)(C)C1=O [Example A-182] : reported pest or weed control at 250 g/ha = 30

Record summary for CCc1ccc(Oc2ccc(Br)c(Cl)c2)cc1C1=C(O)[C@@H]2CC[C@](C)(C1=O)C2(C)C [Example A-241] : reported pest or weed control at 250 g/ha = 30

Record summary for CCc1ccc(Oc2ccc(F)c(C(F)(F)F)c2)cc1C1=C(O)C(C)(C)OC(C)(C)C1=O [Example A-178] : reported pest or weed control at 250 g/ha = 10

Record summary for CC1(C)OC(C)(C)C(O)=C(c2cc(Oc3cnc4cc(Cl)ccc4n3)ccc2C2CC2)C1=O [Example A-279] : reported pest or weed control at 250 g/ha = 90

Record summary for CCc1ccc(Oc2ccc(F)c(F)c2)cc1C1=C(O)C(C)(C)OC(C)(C)C1=O [Example A-177] : reported pest or weed control at 250 g/ha = 0

Record summary for CCc1ccc(Oc2ccc(F)c(C)c2)cc1C1=C(O)C(C)(C)OC(C)(C)C1=O [Example A-179] : reported pest or weed control at 250 g/ha = 0

Record summary for CCc1ccc(Oc2ncc(C(F)(F)F)cc2F)cc1C1=C(O)CC2(CCOCC2)CC1=O [Example A-273] : reported pest or weed control at 250 g/ha = 100

Record summary for CCc1ccc(Oc2ccc(C(F)(F)F)c(C#N)c2)cc1C1=C(O)CC(C)(C)CC1=O [Example A-295] : reported pest or weed control at 250 g/ha = 50

Record summary for CCc1ccc(Oc2ccc(C(F)(F)F)c(Cl)c2)cc1C1=C(O)[C@H]2CC[C@H](C2)C1=O [Example A-332] : reported pest or weed control at 250 g/ha = 80

Record summary for CCc1ccc(Oc2nc3ccc(Cl)cc3s2)cc1C1=C(O)[C@H]2CC[C@H](C2)C1=O [Example A-338] : reported pest or weed control at 250 g/ha = 90

Record summary for CCc1ccc(Oc2cccc(F)n2)cc1C1=C(O)C(C)(C)OC(C)(C)C1=O [Example A-43] : reported pest or weed control at 250 g/ha = 10

Record summary for CCc1ccc(Oc2ncc(C(F)(F)F)cc2C(F)(F)F)cc1C1=C(O)[C@@H]2CC[C@](C)(C1=O)C2(C)C [Example A-324] : reported pest or weed control at 250 g/ha = 90

Record summary for CCc1ccc(Oc2ncc(C(F)(F)F)cc2C(F)(F)F)cc1C1=C(O)CC2(CCOCC2)CC1=O [Example A-269] : reported pest or weed control at 250 g/ha = 100

Record summary for CCc1ccc(Oc2ccc(C#N)cn2)cc1C1=C(O)C(C)(C)OC(C)(C)C1=O [Example A-150] : reported pest or weed control at 250 g/ha = 10

Record summary for CCc1ccc(Oc2ccc(Br)c(C)c2)cc1C1=C(O)C(C)(C)OC(C)(C)C1=O [Example A-11] : reported pest or weed control at 250 g/ha = 0

Record summary for CCc1ccc(Oc2ccc(Cl)cc2Br)cc1C1=C(O)C(C)(C)OC(C)(C)C1=O [Example A-23] : reported pest or weed control at 250 g/ha = 70

* * *

Tested on: Echinochloa crus-galli (ECHCG)
Test: Pre-emergence herbicidal activity, glasshouse pot test
Type: in vivo
Settings: Echinochloa crus-galli, 312 h; Rate 250 g/ha; pre-emergence spray; evaluated after 13 days; read-out: Pre-emergence activity ECHCG (100=total damage to plant; 0=no damage to plant)
// pest or weed control at 250 g/ha lookup, one value per entry
Record the value in %, omitting the unit from your answer.

Examples from the recorded data:
CCc1ccc(Oc2ccc(F)c(Cl)c2)cc1C1=C(O)C(C)(C)OC(C)(C)C1=O 90
CCc1ccc(Oc2ccc3cc(Cl)ccc3n2)cc1C1=C(O)C(C)(C)OC(C)(C)C1=O 90
CCc1ccc(Oc2ccc(C(F)(F)F)c(Cl)c2)cc1C1=C(O)[C@H]2CC[C@H](C2)C1=O 100

# input for lookup
Record summary for "CCc1ccc(Oc2ccc([N+](=O)[O-])cc2C(F)(F)F)cc1C1=C(O)C(C)(C)OC(C)(C)C1=O" : reported pest or weed control at 250 g/ha = 60

* * *

Tested on: Alopecurus myosuroides (ALOMY)
Assay: Pre-emergence herbicidal activity, glasshouse pot test
Assay type: in vivo
Conditions: Alopecurus myosuroides, 312 h; Rate 250 g/ha; pre-emergence spray; evaluated after 13 days; read-out: Pre-emergence activity ALOMY (100=total damage to plant; 0=no damage to plant)
Cut-off 50% on pest or weed control at 250 g/ha: below means Fulfilled, at or above means Not fulfilled.

Solved cases below.
Compound	Class Assignment
CCc1ccc(Oc2ncc(C)cn2)cc1C1=C(O)C(C)(C)OC(C)(C)C1=O	Fulfilled
CCc1ccc(Oc2ccc(C(F)(F)F)c(Cl)c2)cc1C1=C(O)CC(C)(C)CC1=O	Not fulfilled
CCc1ccc(Oc2ccc(Br)cc2)cc1C1=C(O)[C@H]2CC[C@H](C2)C1=O (single isomer, unassigned)	Not fulfilled
CCc1ccc(Oc2ccc(F)cc2)cc1C1=C(O)[C@@H]2CC[C@](C)(C1=O)C2(C)C	Fulfilled
CCc1ccc(Oc2cnc3cc(Cl)ccc3n2)cc1C1=C(O)CC(C)(C)CC1=O	Not fulfilled
CCc1ccc(Oc2cnc3cc(Cl)ccc3n2)cc1C1=C(O)C(C)(C)OC(C)(C)C1=O	Not fulfilled
CCc1ccc(Oc2ccc(C(F)(F)F)cn2)cc1C1=C(O)CC(C)(C)CC1=O	Not fulfilled
CCc1ccc(Oc2ccc(Br)cc2F)cc1C1=C(O)CCC(C)(C)C1=O	Fulfilled

Ask: Consider the compound "CCc1ccc(Oc2ccc(C#N)cc2F)cc1C1=C(O)CC(C)(C)CC1=O" . Is its pest or weed control at 250 g/ha strictly less than 50%?
Reply: Fulfilled

Ask: Consider the compound "CC1(C)OC(C)(C)C(O)=C(c2cc(Oc3ccc4cc(Cl)ccc4n3)ccc2C2CC2)C1=O" . Is its pest or weed control at 250 g/ha strictly less than 50%?
Reply: Not fulfilled

Ask: Consider the compound "CCc1ccc(Oc2ncc(C)nc2C)cc1C1=C(O)C(C)(C)OC(C)(C)C1=O" . Is its pest or weed control at 250 g/ha strictly less than 50%?
Reply: Fulfilled

Ask: Consider the compound "CCc1ccc(Oc2ccc(Cl)c(F)c2)cc1C1=C(O)C(C)(C)CCC1=O" . Is its pest or weed control at 250 g/ha strictly less than 50%?
Reply: Fulfilled

Ask: Consider the compound "CCc1ccc(Oc2ccc(C#N)cc2C(F)(F)F)cc1C1=C(O)CC(C)(C)CC1=O" . Is its pest or weed control at 250 g/ha strictly less than 50%?
Reply: Fulfilled

Ask: Consider the compound "CCc1ccc(Oc2ccc(Cl)cc2F)cc1C1=C(O)CC2(CCOCC2)CC1=O" . Is its pest or weed control at 250 g/ha strictly less than 50%?
Reply: Not fulfilled

Ask: Consider the compound CCc1ccc(Oc2ccc(Cl)cc2Cl)cc1C1=C(O)[C@@H]2CC[C@](C)(C1=O)C2(C)C (single isomer, unassigned) . Is its pest or weed control at 250 g/ha strictly less than 50%?
Reply: Fulfilled
